Data provenance is PubChem BioAssay (NCI).

tested on: MDA-MB-231 breast; test: NCI tumour cell line growth inhibition, 48 h
property-label: TGI

compound: COc1ccc(/C=C2\CN(C)CC3=C2OC(N)=C(C#N)C3c2ccc(OC)cc2)cc1 (stereo not given)
property-label: TGI
measurement: > 100 µM
--
compound: Nc1ccn([C@H]2C[C@@H](O)[C@@H](CO)S2)c(=O)n1
property-label: TGI
measurement: > 100 µM
--
compound: COc1ccc(-c2cc(-c3ccc(Nc4ccnc5cc(C(F)(F)F)ccc45)cc3)[nH]c(=O)c2C#N)c2ccccc12
property-label: TGI
measurement: > 59.8 µM
--
compound: CC(SC(=S)N1CCCCC1)C(=O)Nc1nnc(-c2ccc(Cl)cc2)o1 (stereo not given)
property-label: TGI
measurement: > 100 µM
--
compound: N=c1c2c3n(c4c(=O)n(-c5ccccc5)c(=S)n(c(=O)n1-c1ccccc1)c24)CCCCC3
property-label: TGI
measurement: > 100 µM
--
compound: O=C(O)c1cc2ccccc2c(N=Nc2c([N+](=O)[O-])cc([N+](=O)[O-])cc2S(=O)(=O)O)c1O
property-label: TGI
measurement: > 100 µM
--
compound: O=C(O)c1c(CC(Cc2ccc3c(c2)CCCC3)C(=O)O)ccc2c1CCCC2 (stereo not given)
property-label: TGI
measurement: > 100 µM
--
compound: Cc1nc2c(nc1C)-c1c(c3c(n1Cc1ccccc1)C(=O)CCC3)C(=O)C2=O
property-label: TGI
measurement: > 100 µM
--
compound: COc1cccc(NCC(=O)Nn2c(-c3ccccc3)nc3ccccc3c2=O)c1
property-label: TGI
measurement: > 100 µM
--
compound: CCOC(=O)CCC(NC(=O)c1ccc(CNc2nc3cc(N)cc(N)c3nc2-c2ccccc2)cc1)C(=O)OCC (stereo not given)
property-label: TGI
measurement: > 68.1 µM
